Where these numbers come from: PubChem BioAssay (NCATS)

# PROTOCOL_SUMMARY: Cellular viability qHTS for adrenocortical cancer (ACC) cell line SW-13 (AID 1963989);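 also: cells grown in serum-free medium with ITS supplement; % is scaled to controls: 0 for no effect and ±100 for the full control effect; nearly all actives have a fitted effect of over 65% in size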
# EXPERIMENTAL_PARAMETERS: SW-13 ACC cells viability, CellTiter-Glo, 48 h; hits give low values
# Description: PI: Naris Nilubol, MD Surgical Oncology Program, National Cancer Institute (NCI) National Institute of Health (NIH), Bethesda, Maryland Adrenocortical cancer (ACC) is a rare malignancy with poor survival outcomes and few treatment options. Currently, mitotane is the only FDA-approved therapy for ACC. […] Through a quantitative high-throughput drug screen (qHTS), we identified auranofin (AF), a thioredoxin reductase (TXNRD) inhibitor, as a promising candidate drug. […]
Records with an inconclusive call do not appear.
EXPERIMENTAL_ENDPOINT: activity (max response) (%)
Please reply with the bare figure in % and do not write the unit itself.

{"columns": ["COMPOUND", "SCALE_UNIT", "activity (max response)"],
 "data": [
  ["CN[C@@H]1[C@@H](O)[C@@H](O[C@@H]2[C@H](O)[C@H](O[C@H]3OC(CN)=CC[C@H]3N)[C@@H](N)C[C@H]2N)OCC1(C)O (stereo partly specified)", "%", 5.55],
  ["CCNC(=O)/C=C/c1cccc(Br)c1", "%", -10.3],
  ["N#Cc1ccc(N(Cc2ccc(Br)cc2)n2cnnc2)cc1", "%", -0.886]
]}

Enquiry: What does the data say about its activity (max response)? Entry: "C[C@]12CCC(=O)C=C1CC[C@@H]1[C@@H]2CC[C@@]2(C)[C@H]1CC[C@]2(O)C(=O)CO"
Return: -2.88

Enquiry: What does the data say about its activity (max response)? Entry: Cc1noc(-c2ccc(CSCCC(=O)O)cc2)c1NC(=O)OC(C)c1ccccc1Cl (stereo unspecified)
Return: -1.37

Enquiry: What does the data say about its activity (max response)? Entry: "COC(=O)[C@@H](N)Cc1ccc(O)c(O)c1"
Return: -15

Enquiry: What does the data say about its activity (max response)? Entry: "CN1C(C(=O)Nc2ccccn2)=C(O)c2sc(Cl)cc2S1(=O)=O"
Return: -21.7

Enquiry: What does the data say about its activity (max response)? Entry: "O=C(O)CN1C(=O)c2cccc3cccc(c23)C1=O"
Return: -3.53

* * *

# PROTOCOL_SUMMARY: Quantitative highthroughput screen to assess conditional lethalithy of NOMO1 cells grown in RPMI1640 with untreated serum (RPMI+s) (AID 1963876); also: nearly all actives have a fitted effect of over 35% in size;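 as to viability: 100% = DMSO wells and 0% = empty wells without cells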
# EXPERIMENTAL_PARAMETERS: NOMO1 AML cells in RPMI+serum, CellTiter-Glo viability, 48 h; series mostly up to 45.8 µM
Results filed as inconclusive are left out. Calls of active or inactive are those of the source. The call rests on the fitted dose curve; in most records, active means well fitted cell-killing curve with a large enough effect; inconclusive means small, poorly fitted or top-dose-only effect; inactive means flat fitted curve, though single readings scatter.
Your response should consist of one outcome taken from true (1) = active, false (0) = inactive

// known answers, use as guide
{"columns": ["COMPOUND", "ASSIGNED_LABEL"],
 "data": [
  ["CCOC(=O)C1=C(C)NC2=C(C(=O)CC(C)(C)C2)C1c1ccc(-c2ccccc2)cc1 (stereo not given)", "false (0)"],
  ["Cc1nc(N)ncc1-c1nc(N2CCOCC2)c2sc(C(C)(C)O)cc2n1", "true (1)"],
  ["Oc1ccc(OCc2ccccc2)cc1", "false (0)"],
  ["CCc1cccc2c3c([nH]c12)C(CC)(CC(=O)O)OCC3 (stereo not given)", "false (0)"],
  ["Cc1cc(-c2nnc3n2CCCCC3)c(C)n1-c1ccccc1", "false (0)"],
  ["Cc1cc2c(s1)Nc1ccccc1N=C2N1CCN(C)CC1", "false (0)"],
  ["CO[C@@H](C(=O)N1Cc2[nH]nc(NC(=O)c3ccc(N4CCN(C)CC4)cc3)c2C1)c1ccccc1", "true (1)"],
  ["O=C(Nc1nc2ccccc2n1CCN1CCOCC1)c1cccc([N+](=O)[O-])c1", "false (0)"],
  ["c1ccc(-c2nn3c(c2-c2ccnc4cc(OCCN5CCOCC5)ccc24)CCC3)nc1", "false (0)"]
]}

Enquiry: Hi team, can someone confirm the assay call for "O=C(N[C@H](CO)[C@H](O)c1ccc([N+](=O)[O-])cc1)C(Cl)Cl" ?
Return: false (0)
